Value source: patent EP4039268A1

Molecular target: T1, human recombinant soluble ACE2 (human, UniProt Q9BYF1 18-740)
T1 construct: also called hrsACE2
T1 sequence (Q9BYF1 18-740 limits assumed): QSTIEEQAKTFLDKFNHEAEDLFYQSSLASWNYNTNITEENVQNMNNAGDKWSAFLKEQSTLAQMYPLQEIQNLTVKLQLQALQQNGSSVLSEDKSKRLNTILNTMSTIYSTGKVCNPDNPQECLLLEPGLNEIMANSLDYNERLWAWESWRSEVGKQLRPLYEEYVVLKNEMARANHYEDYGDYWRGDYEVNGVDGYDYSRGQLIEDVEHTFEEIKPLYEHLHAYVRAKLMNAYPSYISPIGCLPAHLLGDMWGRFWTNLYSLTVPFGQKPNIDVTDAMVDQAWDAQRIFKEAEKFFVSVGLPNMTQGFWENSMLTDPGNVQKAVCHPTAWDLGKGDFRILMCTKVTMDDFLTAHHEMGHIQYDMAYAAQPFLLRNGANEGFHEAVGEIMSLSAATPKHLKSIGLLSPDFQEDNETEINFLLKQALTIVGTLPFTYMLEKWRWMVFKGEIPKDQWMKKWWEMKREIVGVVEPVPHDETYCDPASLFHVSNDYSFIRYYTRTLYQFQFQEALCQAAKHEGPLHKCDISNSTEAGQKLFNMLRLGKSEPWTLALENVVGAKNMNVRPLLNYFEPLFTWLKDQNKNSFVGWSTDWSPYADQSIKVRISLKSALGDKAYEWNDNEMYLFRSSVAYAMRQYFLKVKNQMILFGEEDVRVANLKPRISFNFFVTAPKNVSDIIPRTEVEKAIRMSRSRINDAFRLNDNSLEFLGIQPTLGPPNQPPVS
Assay: ELISA screen
quantity measured: Mean normalized OD
Include the unit right after the number.

Please review the following examples before continuing.
Ly75_1 CRD-mouse IgG2a-Fc fusion protein (Fc fusion) QIGSCYQFNNQEILSWKEAYVSCQNQGADLLSIHSAAELAYITGKEDIARLVWLGLNQLYSARGWEWSDFRPLKFLNWDPGTPVAPVIGGSSCARMDTESGLWQSVSCESQQPYVCKGGGSGGGSGGGS ... -0.571 OD
Sftpd CRD-mouse IgG2a-Fc fusion protein (Fc fusion) VGDKIFRTADSEKPFEDAQEMCKQAGGQLASPRSATENAAIQQLITAHNKAAFLSMTDVGTEGKFTYPTGEPLVYSNWAPGEPNNNGGAENCVEIFTNGQWNDKACGEQRLVICEFGGGSGGGSGGGS ... 0.016 OD
Klrd1 CRD-mouse IgG2a-Fc fusion protein (Fc fusion) HQCNCYFISKEEKSWKRSRDFCASQNSSLLQPQSRNELSFMNFSQTFFWIGMHYSEKRNAWLWEDGTVPSKDLFPEFSVIRPEHCIVYSPSKSVSAESCENKNRYICKGGGSGGGSGGGS ... 0.006 OD

Now turn to the next binder.
Query: Mean normalized OD; subject: Colec10 CRD-mouse IgG2a-Fc fusion protein (Fc fusion) TEEKFYYIVQEEKNYRESLTHCRIRGGMLAMPKDEVVNTLIADYVAKSGFFRVFIGVNDLEREGQYVFTDNTPLQNYSNWKEEEPSDPSGHEDCVEMLSSGRWNDTECHLTMYFVCEGGGSGGGSGGGS
0.185 OD
